- subject.of.test: Sigma non-opioid intracellular receptor 1 (Homo sapiens, UniProt Q99720)
- Sequence (Q99720 whole entry): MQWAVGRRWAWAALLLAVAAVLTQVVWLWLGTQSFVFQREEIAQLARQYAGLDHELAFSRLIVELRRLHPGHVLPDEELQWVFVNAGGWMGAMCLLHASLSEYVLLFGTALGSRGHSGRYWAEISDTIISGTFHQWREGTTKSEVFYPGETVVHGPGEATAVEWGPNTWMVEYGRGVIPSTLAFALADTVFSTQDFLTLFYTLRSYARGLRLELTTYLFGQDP
- test.summary: Binding affinity to sigma 1 receptor (unknown origin)
pIC50: −log10 of the molar value.

| compound.structure.string | subject.of.test | pIC50 |
| --- | --- | --- |
| COc1cccc2c1CCC(=O)N2CCCN1CCN(c2cccc(Cl)c2)CC1 | Sigma non-opioid intracellular receptor 1 (Homo sapiens, UniProt Q99720) | 7.33 |

---

- Species on record: Cavia porcellus
- test.summary: Selectivity ratio of Ki for sigma 2 receptor in Dunkin Hartley guinea pig membrane to Ki for sigma 1 receptor in Dunkin Hartley guinea pig membrane
- Type: cell membranes
Parameter: Ratio Ki. Scope: all listed entries.

| compound.structure.string | Ratio Ki |
| --- | --- |
| Cc1ccc(CN2C(=O)CCc3ccc(OCCCN4CCCCC4)cc32)cc1 | 488 |
| CCN(CC)CCCOc1ccc2c(c1)N(Cc1ccccc1)C(=O)CC2 | 2.5 |
| CC1CCN(CCCOc2ccc3c(c2)N(Cc2ccccc2)C(=O)CC3)CC1 | 290 |
| CN(C)CCCOc1ccc2c(c1)N(Cc1ccccc1)C(=O)CC2 | 2.4 |
| CC1CCN(CCCOc2ccc3c(c2)N(Cc2ccc(F)cc2)C(=O)CC3)CC1 | 1250 |
| O=C1CCc2ccc(OCCCN3CCOCC3)cc2N1CCc1ccccc1 | 4.6 |
| CN1CCN(CCCOc2ccc3c(c2)N(Cc2ccccc2)C(=O)CC3)CC1 | 37.4 |
| O=C1CCc2ccc(OCCCN3CCCCC3)cc2N1Cc1ccc(F)cc1 | 1070 |
| Cc1cc(OCCN2CCOCC2)nn1-c1ccc2ccccc2c1 | > 190 |
| CN1C(=O)CCc2ccc(OCCCN3CCCCC3)cc21 | 10.4 |
| Cc1ccc(CN2C(=O)CCc3ccc(OCCCN4CCC(C)CC4)cc32)cc1 | 507 |

---

- subject.of.test: Sigma non-opioid intracellular receptor 1 (Cavia porcellus)
- Sequence (Q60492 whole entry): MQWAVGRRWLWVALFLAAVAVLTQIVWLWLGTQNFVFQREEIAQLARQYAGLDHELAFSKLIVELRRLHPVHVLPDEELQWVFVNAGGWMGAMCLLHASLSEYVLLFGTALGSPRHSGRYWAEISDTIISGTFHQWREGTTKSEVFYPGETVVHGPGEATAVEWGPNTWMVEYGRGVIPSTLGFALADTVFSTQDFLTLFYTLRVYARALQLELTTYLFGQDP
- test.summary: Displacement of [3H]-(+)-pentazocine from sigma 1 receptor in Dunkin Hartley guinea pig membrane after 180 mins by liquid scintillation counting analysis

| compound.structure.string | unit.info | Ki |
| --- | --- | --- |
| CN(C)CCCOc1ccc2c(c1)N(Cc1ccccc1)C(=O)CC2 | nM | 83.2 |
| O=C1CCc2cc(OCCCCN3CCOCC3)ccc2N1CCc1ccccc1 | nM | 195 |
| O=C1CCc2ccc(OCCCN3CCCCC3)cc2N1 | nM | 89.1 |
| O=C1CCc2cc(OCCCN3CCOCC3)ccc2N1CCc1ccccc1 | nM | 40.2 |
| CC1CCN(CCCOc2ccc3c(c2)N(Cc2ccccc2)C(=O)CC3)CC1 | nM | 1.1 |
| O=C1CCc2ccc(OCCCCCCN3CCOCC3)cc2N1Cc1ccccc1 | nM | 682 |
| O=C1CCc2ccc(OCCCN3CCCCC3)cc2N1Cc1ccc(F)cc1 | nM | 1.22 |
| O=C1CCc2ccc(OCCCCN3CCOCC3)cc2N1CCc1ccccc1 | nM | 44.8 |
| CC1CCN(CCCOc2ccc3c(c2)N(C)C(=O)CC3)CC1 | nM | 40.2 |
| CC1CCN(CCCOc2ccc3c(c2)NC(=O)CC3)CC1 | nM | 66.7 |
| O=C1CCc2ccc(OCCCN3CCN(c4ccccc4)CC3)cc2N1Cc1ccccc1 | nM | 341 |
